B1: LINE1-full (parent)
chain: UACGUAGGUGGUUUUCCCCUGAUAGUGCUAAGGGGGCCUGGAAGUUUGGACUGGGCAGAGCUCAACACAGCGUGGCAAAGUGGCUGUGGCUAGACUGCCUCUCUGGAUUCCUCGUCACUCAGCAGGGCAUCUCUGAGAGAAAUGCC

variants of: B1; assay: self-cleavage, relative activity (ratio to wild type); higher = more cleavage; in vitro, sequencing; the parent is a self-cleaving ribozyme
Reported self-cleavage values for a set of variants

Consider the variant shown here: UACGUAGGUGGUUUUCCCCUGAUAGUGCUAAGGGGGCCUGGAAGUCUGGACUGGGCAGAGCUCAACACAGCGUGGCAAAGUGGCUGGGGCUAGACUGCCUCUCUGGAUUCCUCGUCACUCAGCAGGGCAUCUCUGAGAGAAAUGCC [U46C U87G] What is its recorded self-cleavage?
0.55

Continuing:
Entry under review: UACGUAGGUGGUUUUCCCCUGAUAGUGCUAAGGGGGCCUGGAAGUUUGGACUGGGCAGAGCUCAACACAGCGUGGCAAAGUGGCUGUGGCUAGACUGCCUCUCUGGGUUCCUCGUCACUCAGCAGGGCAUCCCUGAGAGAAAUGCC [A107G U132C] . Reported self-cleavage?
1.62

Which self-cleavage is reported for this variant? UACGCAGGUGGUUUUCCCCUGAUAGUGCUACGGGGGCCUGGAAGUUUGGACUGGGCAGAGCUCAACACAGCGUGGCAAAGUGGCUGUGGCUAGACUGCCUCUCUGGAUUCCUCGUCACUCAGCAGGGCAUCUCUGAGAGAAAUGCC [U5C A31C]
0.75

Record request: self-cleavage value, item UACGUAGGUGGUUUUCCCCUGAUAGUGCUAAGGGGGCCUGGAAGUUUGGACUGGGCAGAGCUCAACACAGCGUGGCAAAGUGGCUGUGGCUAGACUGCCUCUCUGGAUUCCUCGUCACUCAGCAUGGCAUCUCUGAGGGAAAUGCC [G125U A138G]
2.25

Which value of self-cleavage has been reported for UGCGUAGGUGGUUUUCCCCUGAUAGUGCUAAGGGGGCCUGGAAGUUUGGACUGGGCAGAGCUCAACGCAGCGUGGCAAAGUGGCUGUGGCUAGACUGCCUCUCUGGAUUCCUCGUCACUCAGCAGGGCAUCUCUGAGAGAAAUGCC [A2G A67G] in the records?
0.41

Any idea what self-cleavage was measured for UACGUAGGUGGUUUUCCCCUGAUAGUGCUAAGGGGGCCUGGAAGUUUGGACUGGGCAGAGCUCAACACAGCGUAGCAAAGUGGCUGUGGCUAGACUGCCUCUCUGGAUUCCUCGUCACUCAGCGGGGCAUCUCUGAGAGAAAUGCC [G74A A124G] ?
0.51

// lookup self-cleavage for UACGUAGGUGGUUUUCCCCUGAUAGUGCUAAAGGGGCCUGGAAGUUUGGACUGGGCAGAGCUCAACACAGCGUGGCAAAGUGGCUGUGGCUUGACUGCCUCUCUGGAUUCCUCGUCACUCAGCAGGGCAUCUCUGAGAGAAAUGCC [G32A A92U]
0.75

Which self-cleavage value is on record for UACGUAGGUGGUUUUCCCCUGAUAGUGCUAAGGGGGCCUGGAAGUUUGGACUGGGCAGAGCUCAACACAGCGUGGCAAAGUGGCUGUGGCUAGACUGCCUCUCUGGAUUCCUCGUCACUCAGCAGGGCUUCCCUGAGAGAAAUGCC [A129U U132C] ?
1.3
